The entries below are paired with their reported pIC50.
target: ErbB2 with Exon 20 YVMA insertion (HER2-YVMA) (Homo sapiens (Human), UniProt P04626, INS775YVMA); experiment: Cellular phosphorylation assay, constitutive ErbB2 phosphorylation (Y1196) in engineered NIH 3T3 cells, Assay 4
Sequence (P04626 other isoform, or with tags, fused parts or gaps ins YVMA behind 775): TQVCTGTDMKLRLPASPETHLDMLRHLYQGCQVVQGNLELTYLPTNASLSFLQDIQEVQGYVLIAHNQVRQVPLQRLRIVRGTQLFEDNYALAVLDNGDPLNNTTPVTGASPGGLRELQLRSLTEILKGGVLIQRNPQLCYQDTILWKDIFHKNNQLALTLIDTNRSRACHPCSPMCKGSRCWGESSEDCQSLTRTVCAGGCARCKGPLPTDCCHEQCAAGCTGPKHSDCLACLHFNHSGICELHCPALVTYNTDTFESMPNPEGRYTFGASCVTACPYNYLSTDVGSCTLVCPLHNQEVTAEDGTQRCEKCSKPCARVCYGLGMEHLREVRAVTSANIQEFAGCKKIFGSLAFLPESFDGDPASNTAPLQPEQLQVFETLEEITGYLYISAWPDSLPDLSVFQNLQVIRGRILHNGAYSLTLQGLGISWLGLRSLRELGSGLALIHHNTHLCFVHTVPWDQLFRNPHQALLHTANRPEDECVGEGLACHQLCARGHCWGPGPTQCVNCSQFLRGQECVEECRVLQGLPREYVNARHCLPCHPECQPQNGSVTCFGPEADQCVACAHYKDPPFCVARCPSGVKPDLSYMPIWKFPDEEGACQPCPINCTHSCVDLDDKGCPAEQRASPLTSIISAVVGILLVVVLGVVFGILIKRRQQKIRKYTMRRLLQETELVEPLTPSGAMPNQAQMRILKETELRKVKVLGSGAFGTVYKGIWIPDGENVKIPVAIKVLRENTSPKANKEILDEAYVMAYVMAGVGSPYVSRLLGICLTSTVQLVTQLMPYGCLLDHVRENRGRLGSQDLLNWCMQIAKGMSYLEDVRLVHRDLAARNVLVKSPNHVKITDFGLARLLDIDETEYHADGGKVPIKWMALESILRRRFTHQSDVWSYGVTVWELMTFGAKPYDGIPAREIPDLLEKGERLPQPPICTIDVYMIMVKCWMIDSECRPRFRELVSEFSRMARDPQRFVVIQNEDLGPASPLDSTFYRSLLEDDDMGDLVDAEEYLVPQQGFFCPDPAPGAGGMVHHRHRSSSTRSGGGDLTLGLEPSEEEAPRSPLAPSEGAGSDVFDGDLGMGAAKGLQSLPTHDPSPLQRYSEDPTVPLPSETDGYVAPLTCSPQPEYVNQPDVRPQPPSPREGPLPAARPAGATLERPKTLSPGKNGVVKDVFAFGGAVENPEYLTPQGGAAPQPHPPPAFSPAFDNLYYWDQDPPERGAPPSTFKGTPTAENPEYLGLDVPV
Structures can show the parent of a compound that is named as a salt.
Answer as the number alone; pIC50 is minus log10 of concentration in mol/L.

As a guide, the following entries are already answered.
Please look up its pIC50: Cc1cc(Nc2ncnc3cnc(N(C)CC4(O)CC4)nc23)ccc1Oc1ccc2c(c1)ncn2C [Example 166]
8.52

How about this compound: Cn1cnc2cc(Oc3ccc(Nc4ncnc5cnc(N6CCN7CCOC[C@@H]7C6)nc45)cc3Cl)ccc21.O=C(O)C(F)(F)F.O=C(O)C(F)(F)F [Example 151, bis(2,2,2-trifluoroacetate)]
7.73

How about this compound: Cc1cc(Nc2ncnc3cnc(N4CCC[C@](C)(O)C4)nc23)ccc1Oc1ccc2c(c1)ncn2C [Example 461]
7.33

How about this compound: FC(F)O[C@@H]1CCN(c2ncc3ncnc(Nc4ccc(Oc5ccn6ncnc6c5)c(Cl)c4)c3n2)C1 [Example 354]
7.14

How about this compound: CC(C)(O)[C@@H]1CCN(c2ncc3ncnc(Nc4ccc(Oc5ccn6ncnc6c5)c(Cl)c4)c3n2)C1 [Example 122]
7.71

How about this compound: Cc1cc(Nc2ncnc3cnc(N4CCC(F)(F)[C@@H](O)C4)nc23)ccc1Oc1ccc2c(c1)ncn2C [Example 460]
7.06

Others:
Please look up its pIC50: CON1CCN(c2ncc3ncnc(Nc4ccc(Oc5ccn6ncnc6c5)c(C)c4F)c3n2)CC1 [Example 95]
6.75

How about this compound: Cc1cc(Nc2ncnc3cnc(N4CCOCC4)nc23)ccc1Oc1ccc2scnc2c1.O=C(O)C(F)(F)F [Example 82, 2,2,2-trifluoroacetate]
7.26

How about this compound: Cc1cc(Nc2ncnc3cnc(N(C)C4CCOCC4)nc23)ccc1Oc1ccc2c(c1)ncn2C [Example 153]
7.60

How about this compound: Cc1cc(Nc2ncnc3cnc(N4CC5COC(C5)C4)nc23)ccc1Oc1ccc2c(c1)ncn2C (centres unmarked) [Example 67]
7.06

How about this compound: Cc1cc(Nc2ncnc3cnc(N4CCOCC4)nc23)ccc1Oc1cc(F)c2c(c1)ncn2C.O=C(O)C(F)(F)F [Example 70, 2,2,2-trifluoroacetate]
8.31

How about this compound: Cc1cc(Nc2ncnc3cnc(O[C@@H]4CNC[C@@H]4F)nc23)ccc1Oc1ccc2c(c1)ncn2C [Example 283]
6.58

How about this compound: O[C@@H]1C[C@@H]2C[C@H]1CN2c1ncc2ncnc(Nc3ccc(Oc4ccn5ncnc5c4)c(Cl)c3)c2n1 [Example 333]
7.09

How about this compound: Cc1cc(Nc2ncnc3cnc(N4CC(O)(C(F)F)C4)nc23)ccc1Oc1ccc2c(c1)ncn2C [Example 160, hydrochloride]
7.37

How about this compound: Cc1cc(Nc2ncnc3cnc(N[C@@H]4CNCC4(F)F)nc23)ccc1Oc1ccc2c(c1)ncn2C [Example 297]
7.53

How about this compound: Cc1c(Oc2ccn3ncnc3c2)ccc(Nc2ncnc3cnc(N4CCC(C)(O)CC4)nc23)c1F [Example 304]
6.94

How about this compound: Cc1cc(Nc2ncnc3cnc(N4C[C@H](C)O[C@@H](C)C4)nc23)ccc1Oc1ccc2c(c1)ncn2C [Example 72]
7.12

All values here come from patent US11834453B2.
